- Assayed System: human ErbB2 ECD-myc/His fusion protein (human)
- Assay Summary: limited antigen ELISA, 31 ng/ml antigen coated, supernatant 1:25, OD 450 nm
Measured Metric: LA at 31 ng/ml
Answer format reminder: number followed by unit.

Query: LA at 31 ng/ml; subject: monoclonal antibody 1.18.1 (antibody, V domains shown) VH: QVQLVESGGGVVQPGRSLRLSCAASGFTFSSYGMHWVRQAPGKGLEWVAVIWYDRSNKYYADSVKGRFTISRDNSKNTLYLQMDSLRAEDTAVYYCAGGRSRGAFDYWGQGTLVTVSS VL: DIQMTQSPSSLSASVGDRVTITCRASQGIRNYLAWFQQKPGKAPKSLIYAASSLQSGVPSTFSGSGSGTHFTLTISSLQPEDFASYFCQQYEIYPLTFGGGTKVEIK
Result: 3.03 OD

Query: Same lookup for monoclonal antibody 1.100.1 (antibody, V domains shown) VH: QLQLQESGPGLVKPSETLSLTCTVSGGFISSSSYYWGWIRQPPGKGLEWIGTIYYSGTTYYNSSLKSRVTISVDTSQNQFSLKLSSVTAADTAVYYCARHHWVFDYWGQGTLVTVSS VL: EVVLTQSPDFQSVTPKEKITITCRASQIIGTSLHWYQKKPDQSPKLLIKYASQSFSGVPSRFSGSGSGTEFTLTINSLEAEDTATYYCHQSTNLPWTFGQGTKVEIK , please.
Result: 3.54 OD

Query: Same lookup for monoclonal antibody 1.14.1 (antibody, V domains shown) VH: QLQLQESGPGLVKPSETLSLTCTVSGDSISSFIYYWGWIRQPPGKGLEWIGTIYYSGSTYYNPSLKSRVTISVDTSKNQFSLKLRSVTAADTAVYYCARHHWVFDYWGQGTQVTVSS VL: DIVLTQFPDFQSVTPKEKVTITCRASQVIGSSLHWYQQKPDQSPKLLIKYASQSFSGVPSRFSGSGSGTDFTLTINSLEVEDAATYYCHQSTILPWTFGQGTKVEVK , please.
Result: 3.99 OD

Query: Same lookup for monoclonal antibody 1.39 (antibody, V domains shown) VH: QLQLQESGPGLVKPSETLSLTCTVSGGSISSSTYYWGWIRQPPGKGLEWIGTIYYSGSTYYNPSLKSRVTISVDTSKNQFSLKLNSVTAADTAVYYCARHHWVFDYWGQGTLVTVSS VL: EIVLTQSPDFLSVTPKEKVTITCRASQIIGSSLHWYQQKPDQSPKLLIKYASQSFSGVPSRFSGSGSGTDFTLTLNSLEAEDAATYYCHQSTILPWTFGQGTKVEIK , please.
Result: 2.57 OD
